# System: HT29
# Protocol Summary: cells
# Parameters: species or system human cancer cell lines; CCK8 cell viability assay, absorbance at 450 nm
# Condition Details: Homo sapiens, HT-29, 72 h
pIC50: −log10 of the molar value.
Measured Metric: pIC50

Molecule	pIC50
CC(C)C1OC(=O)C(NC(=O)c2cccc(O)c2)C(C)OC(=O)C(C(C)C)OC(=O)C(C)(C)C(=O)C(Cc2ccccc2)OC1=O (stereo not shown)	4.75
CC(C)C1OC(=O)C(NC(=O)c2cccc(O)c2)C(C)OC(=O)C(C(C)C)OC(=O)C(C)(C)C(O)C(Cc2ccccc2)OC1=O (stereo not shown)	4.76
CCC(C)C1OC(=O)C(C)(C)C(=O)C(Cc2ccccc2)OC(=O)C(C(C)C)OC(=O)C(NC(=O)c2cccc(O)c2)C(C)OC1=O (stereo not shown) [compound 1, unantimycin B]	4.71
CCC(C)C1OC(=O)C(C)(C)C(O)C(Cc2ccccc2)OC(=O)C(C(C)C)OC(=O)C(NC(=O)c2cccc(O)c2)C(C)OC1=O (stereo not shown)	4.83
